Experiment: Single-dose pharmacokinetics, dog
Assay type: in vivo
Conditions: Beagle, serum, iv, 10 mg/kg
observation_type: clearance (mL/min/kg)
Give the number; mL/min/kg is assumed, so skip it.

clearance reported for this compound CCCN1CC(Oc2ccc([C@@H]3c4[nH]c5ccccc5c4C[C@@H](C)N3CC(C)(C)F)cc2)C1 [compound 21] : 3.33

----------
Molecular target: AR (Homo sapiens, UniProt P10275)
Sequence (P10275 whole entry): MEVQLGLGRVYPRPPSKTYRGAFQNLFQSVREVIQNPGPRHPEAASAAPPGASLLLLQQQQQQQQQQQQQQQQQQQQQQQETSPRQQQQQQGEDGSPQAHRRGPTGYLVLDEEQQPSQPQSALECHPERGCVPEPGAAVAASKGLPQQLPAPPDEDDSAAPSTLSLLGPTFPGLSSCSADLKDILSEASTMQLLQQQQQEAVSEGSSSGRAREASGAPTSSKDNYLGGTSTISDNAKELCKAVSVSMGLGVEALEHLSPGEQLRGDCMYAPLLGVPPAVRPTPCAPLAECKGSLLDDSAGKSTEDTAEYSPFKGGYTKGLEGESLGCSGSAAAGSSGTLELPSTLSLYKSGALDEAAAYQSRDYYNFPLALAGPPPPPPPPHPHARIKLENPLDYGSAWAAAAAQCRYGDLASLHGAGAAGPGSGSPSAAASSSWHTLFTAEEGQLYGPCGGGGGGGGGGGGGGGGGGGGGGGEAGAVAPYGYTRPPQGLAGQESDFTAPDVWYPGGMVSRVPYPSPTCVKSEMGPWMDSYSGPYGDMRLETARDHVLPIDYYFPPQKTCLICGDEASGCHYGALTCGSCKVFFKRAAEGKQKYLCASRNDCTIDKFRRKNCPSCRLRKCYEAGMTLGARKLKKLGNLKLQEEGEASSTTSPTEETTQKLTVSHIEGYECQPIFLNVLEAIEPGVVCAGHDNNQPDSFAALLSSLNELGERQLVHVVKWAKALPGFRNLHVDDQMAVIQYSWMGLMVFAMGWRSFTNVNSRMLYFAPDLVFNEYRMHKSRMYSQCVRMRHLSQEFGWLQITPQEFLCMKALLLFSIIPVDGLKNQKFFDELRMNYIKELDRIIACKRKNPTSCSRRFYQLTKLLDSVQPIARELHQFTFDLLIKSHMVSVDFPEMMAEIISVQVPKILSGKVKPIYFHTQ
Experiment: Reporter assay of gene transcription activity, AR
Format: cell-based
Details: AR pIC50, antag. mode, reporter assay, antag. mode (agonist-induced activity)
observation_type: pIC50
Please treat pIC50 as minus the base-10 logarithm of the molar concentration.

pIC50 reported for this molecule CCCN1CC(Oc2ccc([C@@H]3c4[nH]c5ccccc5c4C[C@@H](C)N3CC(C)(C)F)cc2)C1 [compound 21] : 5.80
